# PROCEDURE TEXT: physchem
# STUDY CONDITIONS: 40 °C, organic solvent or mixture, thermodynamic from solid, Solubility at 40° C.
OBSERVATION TYPE: solubility at 1 h

{"MOLECULE": "Cc1cnc(-c2ccnc(C(C)(C)O)n2)cc1-n1c(C)cc(OCc2ncc(F)cc2F)c(Cl)c1=O (atropisomer, axis not shown; (P)) [Compound 49a]", "OBSERVED VALUE": "> 9000 µg/mL"}

----------
# PROCEDURE TEXT: physchem
# STUDY CONDITIONS: 23 °C, water, thermodynamic from solid, Solubility at RT
OBSERVATION TYPE: solubility

{"COMPOUND": "Cc1cnc(-c2ccnc(C(C)(C)O)n2)cc1-n1c(C)cc(OCc2ncc(F)cc2F)c(Cl)c1=O (atropisomer, axis not shown; (P)) [Compound 49a]", "OBSERVED VALUE": "< 6000 µg/mL"}

----------
# PROCEDURE TEXT: in vitro
# STUDY CONDITIONS: 50 mg, Tmax (time interval where BAmax is recorded)

{"COMPOUND": "Cc1cnc(-c2ccnc(C(C)(C)O)n2)cc1-n1c(C)cc(OCc2ncc(F)cc2F)c(Cl)c1=O (atropisomer, axis not shown; (P)) [Compound 49a]", "Tmax": "1 to 1.5 h"}
